experiment: yeast display, Sf9 membrane polyspecificity reagent, FACS + sequencing; frameworks hold sequencing errors

PRIMARY_SEQUENCE	polyreactivity (PSR sort gate)
QVQLVESGGGLVQAGGSLRLSCAASGRIFQPYAMGWYRQAPGKERELVARITSGGSTYADSVKGRFTISRDNAKNTVYLQMNSLKPEDTAVYYCAVRYPWYYRGYAYDYWGQGTQVTVSS	high polyreactivity
QVQLVESGGGLVQAGGSLRLSFAASGRIFTYYAMGWYRQAPGKERELVASISRSGGNTYYADSVKGRFTISRDNAKNTVYLQMNSLKPEDTAVYYCAAVYSRLDYWGQGTQVTVSS	high polyreactivity
QVQLVESGGGLVQAVGSLRLSCAASGRIFYPYAMGWYRQAPGKERELVAVITSGTGTYYADSVKGRFTISRDNAKNTVYLQMNSLKQEDTAVYYCAADRWYYRHRSSSYGYDYWGQGTQVTVSS	high polyreactivity

###

experiment: yeast display, Sf9 membrane polyspecificity reagent, FACS + sequencing; frameworks hold sequencing errors
VALUE_TYPE: polyreactivity (PSR sort gate)

Reference set, count: 10
PRIMARY_SEQUENCE	polyreactivity (PSR sort gate)
QVQLVESGGGLVQAGGSLRLSCAASGITFVFYAMGWYRQAPGKERELVAAISTGGSTNYADTVKGRFTISRDNAKNTVYFQMNSLKPEDTAVYYCAAQYFISISKYDYWGQGTQVTVSS	low polyreactivity
QVQLVESGGGLVQAGGSLRLSCAASGFIFTRYAMGWYRQAPGKERELVAAIRWRGSSTYYADSVKGRFTISRDNAKNTVYLQMNSLKPEDTAVYYCAAQPSRSTYLAPSRDHWGQGTQVTVSS	low polyreactivity
QDQLVESRGGLVQAGGSLRLSCAASGLIFPVYAMGWYRQAPRKEREFVASIWRGGTTYYADSVKGRFTISRDNAKNTVYLQMISLKPEDTAVYYCAAVVYSRGYYWGQGTQVTVSS	high polyreactivity
QDQLVESGGGLVQAGGSLRLSCAASGIIFAWYVMGWYRQAPGKERELVATITSSGGRTYYADSVKGRFTISRDNAKNTVYLQMNSLKPEDTAVYYCNAALTRAFKHSTGYDYWGQGTQVTVSS	low polyreactivity
QVQLVESGGGLVQAGGSLRLSCAASGSIFSDYAMGWYRQAPGEERELVAAINSGVSTSYADSVKGRFTISRDNAKNTVYLQMNSLKPEDTAVYYCAKDGSSPSPWYGGFGYWGQGTQVTVSS	low polyreactivity
QVQRVESGGGLVQAGGSLRLSSAASGPIYGDYAMGWYRQEPGKERELVADITWSGGSTYYADSVKGRFTISRDNAKNTVYLQMNSLKPEDTAVYYCNADVWFYYTFDYWGLGTQVTVSS	low polyreactivity
QVQLVESRWRFVQAGGSLRLSCAASGSIFADYAMGWYRQAPGKERELVAAITFSGGSTYYADSVKGRFTISRDNAKNTVYLQMNSLKPEDTAVYYCASRWRYRYYSWGQGTQVTVSS	high polyreactivity
QVQLVESGGGLVQAGGILRISCAASGRTFIMNAMGWYRQAPGKERELVAAINWSGGTSTYYADSVKGRFTISRDNAKNTVYFQMNSLKPEDTAVYYCAADYYSYVYYDYWGQGTLVTVSS	low polyreactivity
QVQLVESGGGLVQAGGSLRLSCAASGRIFGPYAMGWYRQAPGKERELVAASSTDYADSVKGRFTISRDNAKNTVYLQMNSLKPEDTAVYYCAKVGFGIPGGFYYWGQGTQVTVSS	low polyreactivity
QVQLVESGGGLVQAGGSLRLSCAASGLTFYYYAMGWYRQAPGKERELVATISGSGGNTYYADSVKGRFTISRDNAKNTVFLQMNSLKPEDTAVYYCNARYRWWLYYSRDRVYYWGQGTQVTVSS	high polyreactivity

Batch request: polyreactivity (PSR sort gate) for each of the following sequences.
1. QVQLGESGGGLVQAGGSLGLSCAASGGTLRVNTMGWYRQAPGKERELVAAISTRSGRTYYADSVKGRFTISRDNAKYTVYLQMNSLKPEDTAVYYCAATLYRRRSAFDGDWGQGTQVTVSS
2. QVQLVESGGGLVQAGGSLRLSCAASGLTFHYYAMGRYRQATGKERELVAVIRGSCTSTYYADSVKGRFTISRDNAKNTVYLQMNSLKPEDTAVYYFAAPYQYRRSGRVLGKYDSRGQGTQVTVSS
3. QVQLVESGGGLVQAGGSLRLRCAASGSIFSNNAMGWYRPAPGKERELVAAITRSGGNTYYADSVKGRFTISRDNAKNTVYLQMNSLKPEDTAVYYCNAVHLRKMYYWGQGTQVTVSS
4. QDQLVESGGGLVQAGGSLRLSCDASGSIIQSYTMGWYRQAPGKERELVAAIDSGGSTYYADSVKGRFTISRDNAKNTVYLQMNSLKPEDTAVYYCAAEPDTYWYTYDYWGQGTQVTVSS
5. QVQLVESGGGLVQAGGSLRLSCAASGRIFRSNAMGWYRQAPGKERELVAAINYRGDRTYYADSVKGRFTISRDNAKNTVYLQMYSLKPEDTAVYYCNARRYSIPVSAGGYDSWGQGTQVTVSS
6. QVQLVESGGGLVQAGGSLRLSCAASGSIFARNAMGWYRQAPGKERELVASITWSGASTYYADSVKGRFTISRDNAKNTVYLQMNSLKPADTSFYYSAATDQNLSLDYSSYEYRGQGTQVTVSS

Solution:
1. high polyreactivity
2. high polyreactivity
3. high polyreactivity
4. low polyreactivity
5. high polyreactivity
6. low polyreactivity

Batch request: polyreactivity (PSR sort gate) for each of the following sequences.
1. QVQLVESGGGLVQAGGSLRLSCAASGSTFGSYVMGWYRQAPGKERELVAAISQRGTSTYYADSVKGRFTISRDNAKNTVYLQMNSLKPEDTAVYYCNALYWQIGDDYWGQGTQVTVSS
2. QVQLVESGGGLVQAGGSLRLSCAASGRTFYYNVMGWYRQAPGKERELVAAISTGVSTNYADSVKGRFTISRDNAKNTVYLQMNSLKPEDTAVYYCNARSYRWYRPVYRYDYWGQGTQVNVSS
3. QVQLVETGGGLVQAGGSLRLSCAASGSTFSRYPMGWYRQAPGKEWELVAAITGTGGRTYYADSVKGRFTISRDNEKNTVYLLMNSLKPEDTAVYYCAAQRWTVKYNYWGQGTQVTVSS
4. QVQLVESGGGLVQAGGSLRLSCAASGSIFQYTMGWYRQAPVKEMELVAAITRSGSSTYYADSVKGRFTISRDNAKNTVYLQMNSLKPEDTAVYYCAHNIRRVLGYGSWGQGTQVTVSS
5. QVQLVESGGGLVQARGSLRLSCAASGFTSLWNGMGLSSQAPGKERELVAAITSDSSTYYADSVKGRFTISRDNAKNTVYLQMNSLKPEDTAVYYCAKYFVYVGYGRYDYWGQGTEVTVSS

Solution:
["high polyreactivity", "high polyreactivity", "high polyreactivity", "high polyreactivity", "low polyreactivity"]

Recorded values, source the nanobody polyreactivity screen of Harvey et al. (2022).
